Provide the recorded growth for the entries that follow.
# Tested on: OVCAR-4 ovarian
# TEST DESCRIPTION: NCI-60 one-dose screen, 48 h (100 = growth as untreated, 0 = no growth, -100 = all killed)
# CONDITION SUMMARY: 10 µM
The panel holds about 83,000 compounds, 20% with a hit somewhere; the sample as a whole holds those more often.
Give bare numbers, in %.

COMPOUND	growth (%)
COc1ccc(C(=O)CSc2nc(-c3cc(OC)ccc3OC)cc(-c3ccc(OC)cc3)c2C#N)cc1	98.1
Brc1ccc2c(c1)-c1ccccc1C1=NCCN12	0.91
O=C(Nc1ccc(NS(=O)(=O)c2ccc(F)cc2)cc1)C12CC3CC(CC(C3)C1)C2	99

Please give growth for each item listed below.
1. C=C(C)[C@@H]1CC[C@]2(COCCC#N)CC[C@]3(C)[C@H](CC[C@@H]4[C@@]5(C)Cc6c([nH]c7ccccc67)C(C)(C)[C@@H]5CC[C@]43C)[C@@H]12
2. Nc1ncc(-c2cnn(C3CCNCC3)c2)cc1-c1nc2ccccc2o1
3. Cc1nn(-c2ccc(-c3ccc(OC(F)(F)F)cc3)cc2)c2nc(Cc3ccccc3)nc(N)c12
4. CCC1NC(=O)c2cc(S(N)(=O)=O)c(Cl)cc2N1 (stereo not drawn)
5. COC(=O)c1c[nH]c2cc(OC(C)C)c(OC(C)C)cc2c1=O

Return:
1. 88.5
2. 35.8
3. 4.27
4. 130
5. 109

----------
# Test system: SNB-75 CNS
# TEST DESCRIPTION: NCI-60 one-dose screen, 48 h (100 = growth as untreated, 0 = no growth, -100 = all killed)
# CONDITION SUMMARY: 10 µM
# Experimental: Growth inhibition of the SNB-75 human tumor cell line is measured as a screen for anti-cancer activity. Cells are grown in 96 well plates and exposed to the test compound for 48 hours. Compounds are tested at a single concentration, which is 10^-5 M for most compounds. The reported endpoint is percent growth (GI% or GIPRCNT), where numbers from 0 - 100% represent growth inhibition, and numbers from -100% - 0 represent cell death. For example, a value of 40 represents 60% growth inhibition. […]
The panel holds about 83,000 compounds, 20% with a hit somewhere; the sample as a whole holds those more often.
Provide the recorded growth for the entries that follow.
One number for each entry, in %.

COMPOUND	growth, %
C[N+]1(CCCCC[N+]2(C)CCCC2)CCCC1	110
OCC1OC(n2cnc3c(NCc4ccco4)ncnc32)C(O)C1O (centres undefined)	14.7

Please give growth for each item listed below.
1. COc1ccc(-c2nn(-c3cccc(Cl)c3)cc2-c2cc(-c3ccccc3)[nH]c(=O)c2C#N)cc1
2. CC(=O)O[C@@]12CO[C@@H]1C[C@H](O)[C@@]1(C)C(=O)[C@H](O)C3=C(C)[C@@H](OC(=O)[C@H](O)[C@@H](NC(=O)OC(C)(C)C)c4ccccc4)C[C@@](O)([C@@H](OC(=O)c4ccccc4)C12)C3(C)C (some centres undefined)
3. CCCCCOC(=O)Nc1nc(=O)n(C2O[C@H](C)[C@@H](O)[C@H]2O)cc1F (some centres undefined)
4. C=CCn1c(SCC(=O)Nc2ccc(C(=O)/C=C/c3cc(OC)c(OC)c(OC)c3)cc2)nnc1-c1cc(-c2ccc(Cl)cc2)nc2ccccc12

Return:
1: 38.4; 2: -2.3; 3: 77.1; 4: 68.8

Please give growth for each item listed below.
1. O=C(CC(CC(=O)c1ccccc1)c1ccccc1O)c1ccccc1
2. O=C(Cn1cc(CO)nn1)Nc1nc2ccccc2s1

Return:
[89.1, 92.4]

Enquiry: Dear colleague, I am looking for the recorded growth of the following compound: COc1ccc(/C=C2\CCCC3=C2NC(N)=NC3c2ccc(OC)cc2)cc1 (centres undefined)
Return: 87.4

----------
# Test system: M14 melanoma
# TEST DESCRIPTION: NCI-60 one-dose screen, 48 h (100 = growth as untreated, 0 = no growth, -100 = all killed)
# CONDITION SUMMARY: 10 µM
About 83,000 compounds went through this panel and 20% of them were active in at least one assay; those are over-represented in the sample as a whole.
Please enter 1 where growth is greater than or equal to 90%, and 0 where it is lower.

Worked cases, answers included:
> print(dat)
                                   compound  assigned.label
1                    NS(=O)(=O)c1ccc(Br)cc1               0
2  CCOc1ccccc1/C=N\N=C(\N)N/N=C/c1ccccc1OCC               0
3  COc1ccc(-c2nn(-c3cccc(Cl)c3)cc2-c2cc(-c3cccs3)[nH]c(=S)n2)cc1               0
4              O=[N+]([O-])c1ccc2ncccc2c1Cl               0

Please examine the following record next.
Enquiry: Exam item: decide whether the reported growth for COc1ccc(NC(=O)C2CC3C=CC2C3)c([N+](=O)[O-])c1 (stereo unspecified) is at least 90%.
Return: 1

----------
Provide the recorded growth for the entries that follow.
# Test system: DU-145 prostate
# TEST DESCRIPTION: NCI-60 one-dose screen, 48 h (100 = growth as untreated, 0 = no growth, -100 = all killed)
# CONDITION SUMMARY: 10 µM
# Method: Cells are grown in 96 well plates and exposed to the test compound for 48 hours. Compounds are tested at a single concentration, which is 10^-5 M for most compounds. The reported endpoint is percent growth (GI% or GIPRCNT), where numbers from 0 - 100% represent growth inhibition, and numbers from -100% - 0 represent cell death. For example, a value of 40 represents 60% growth inhibition. A value of 0 means no net growth occurred over the course of the experiment. […]
About 83,000 compounds went through this panel and 20% of them were active in at least one assay; those are over-represented in the sample as a whole.
Answers are plain numbers, in %.

Examples with their reported growth follow.
> print(dat)
                                   compound  measured.quantity  reported.result
1                 CCOc1ccccc1/C=N/N1CCCCCC1             growth              111
2  COc1cc(C2C(C#N)=C(N)Oc3cc(O)ccc32)cc(OC)c1OC (stereo not given)             growth             11.1

Please give growth for each item listed below.
1. COc1cc(/C=C/c2cc(/C=C/c3ccc(O)c(OC)c3)[nH]c(=O)n2)ccc1O
2. Oc1ccc(-c2[nH]c3ccccc3c2-c2nc3ccccc3o2)cc1
3. COc1ccc(-c2nn(-c3cccc(Cl)c3)cc2-c2c(C#N)c(N)n(N)c(=O)c2C#N)cc1

Return:
[80.4, 78.6, 90.5]

----------
# Tested on: OVCAR-3 ovarian
# TEST DESCRIPTION: NCI-60 one-dose screen, 48 h (100 = growth as untreated, 0 = no growth, -100 = all killed)
# CONDITION SUMMARY: 10 µM
This is part of a sample that, as a whole, favours compounds with a hit. Of some 83,000 tested, about 20% had one in any assay.
Mark Met only when growth stays strictly below 80%. Values equal to the cut-off are Not met.

Worked cases, answers included:
MOLECULE	ASSIGNED LABEL
Cc1cc(=O)n2nnc3cc(C(F)(F)F)ccc3n12	Not met
C=CCSC(CC)(CC)C(=O)NC	Not met

Enquiry: hey, is growth for COc1ccc(C2=Cn3c(CCC(=O)c4nc5ccccc5[nH]4)nnc3SC2)cc1 lower than 80% or not?
Return: Not met

Enquiry: hey, is growth for O=C(N/N=C/c1c(Cl)cccc1Cl)c1ccccc1Nc1cccc(C(F)(F)F)c1 lower than 80% or not?
Return: Not met

----------
# System: HOP-62 NSCLC
# TEST DESCRIPTION: NCI-60 one-dose screen, 48 h (100 = growth as untreated, 0 = no growth, -100 = all killed)
# CONDITION SUMMARY: 10 µM
Compounds without any hit were thinned out: in the full panel of roughly 83,000, 20% have a hit.
Mark 1 only when growth stays strictly below 90%. Values equal to the cut-off are 0.

MOLECULE	ASSIGNED LABEL
CC(=O)C1N=NCC1c1ccccc1 (stereo not given)	0
COc1cc(C(=O)/C(C)=C/c2c[nH]c3ccccc23)cc(OC)c1OC	1
COc1cc(N)c2ncccc2c1SC	0
Cc1cccc(N=Cc2ccccc2O)c1C	0
CCN(CC)CCOc1ccc2c(c1O)C(=O)c1ccccc1C2=O	1
CNC(=O)c1cn2c3c(c(N4CCN(C)CC4)c(F)cc3c1=O)OC[C@@H]2C	0
CCN(CC)CCCOc1cccc2c1C(=O)c1cccc(OCCCN(CC)CC)c1C2=O	1
COc1ccc(N=Nc2cc(OC)c(OC)c(OC)c2)cc1	1

Enquiry: hey, is growth for COc1ccc(/C=C/C(=O)C(=O)/C=C/c2ccc(OC)c(OC)c2)cc1OC lower than 90% or not?
Return: 0

Enquiry: hey, is growth for COc1ccc(/C=c2\sc3n(c2=O)C(c2cc(OC)c(OC)c(OC)c2)C=C(c2ccc(OC)c(OC)c2)N=3)cc1OC (stereo not given) lower than 90% or not?
Return: 0

Enquiry: hey, is growth for CC(=O)OC1CC2C(C)(C)CCC[C@]2(C)C2=C1C(O)=C(C(C)C)C(=O)C2=O (stereo not given in full) lower than 90% or not?
Return: 1

Enquiry: hey, is growth for COc1ccc(-c2cc(-c3ccc(Cl)cc3)nc(SCCCCCCC(=O)NO)n2)cc1OC lower than 90% or not?
Return: 1

Enquiry: hey, is growth for N#Cc1c(-c2ccc(Cl)cc2)csc1NC(=O)Nc1ccc(Cl)c(C(F)(F)F)c1 lower than 90% or not?
Return: 1

Enquiry: hey, is growth for CN1CCN(CCC(=O)Nc2cccc(-n3cc(-c4ccncc4)c(-c4ccc(Cl)c(O)c4)n3)c2)CC1 lower than 90% or not?
Return: 1

Enquiry: hey, is growth for CC[C@@H](C(=O)[C@H](C)[C@H](O)[C@@H](C)[C@H]1O[C@H]([C@@H](CC)C(=O)N(CC)CC)CC[C@H]1C)C1O[C@]2(C=C[C@@H](O)[C@]3(CC[C@@](C)([C@H]4CC[C@](O)(CC)[C@H](C)O4)O3)O2)[C@H](C)C[C@@H]1C (stereo not given in full) lower than 90% or not?
Return: 1
